Target: Melanocortin receptor 4 (Homo sapiens, UniProt P32245)
Sequence (P32245 whole entry): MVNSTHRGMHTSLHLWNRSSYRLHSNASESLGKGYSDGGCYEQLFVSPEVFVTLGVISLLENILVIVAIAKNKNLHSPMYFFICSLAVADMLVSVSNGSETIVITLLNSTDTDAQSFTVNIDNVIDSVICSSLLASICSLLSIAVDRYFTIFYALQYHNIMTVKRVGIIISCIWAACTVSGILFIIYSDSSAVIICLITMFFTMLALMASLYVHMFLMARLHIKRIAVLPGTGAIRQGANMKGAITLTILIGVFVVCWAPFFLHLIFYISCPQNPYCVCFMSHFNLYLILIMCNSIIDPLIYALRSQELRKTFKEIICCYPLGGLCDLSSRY
Assay: Displacement of [125I]NDP-alpha-MSH from human MC4R expressed in CHO cells
Measurement Name: IC50 (nM)

Take a look at these entries with their results.
Molecule: CC[C@H](NC(C)=O)c1cc(Cl)ccc1C1CCN(C(=O)[C@H]2CN(C(C)(C)C)C[C@@H]2c2ccc3ccccc3c2)CC1
Units Symbol: nM
Observed Measurement: 528
--
Molecule: CC[C@H](NC(C)=O)c1cc(Cl)ccc1C1CCN(C(=O)[C@@H]2CN(C(C)(C)C)C[C@H]2c2ccc(F)cc2Cl)CC1
Units Symbol: nM
Observed Measurement: 216

P: CC[C@H](NC(C)=O)c1cc(Cl)ccc1C1CCN(C(=O)[C@H]2CN(C(C)(C)C)C[C@@H]2c2ccc(Cl)cc2Cl)CC1
Q: CC[C@H](NC(C)=O)c1cc(Cl)ccc1C1CCN(C(=O)[C@H]2CN(C(C)(C)C)C[C@@H]2c2ccc(C(F)(F)F)cc2)CC1
// pick min by IC50: P , Q State your choice using its label.
P
(P: 3.3 nM, Q: 7.8 nM)

Reference source: ChEMBL document CHEMBL1143099
